# system name: C3b (biotinylated, captured site-specifically on a streptavidin chip) (UniProt P01024)
# assay summary: SPR, single-cycle kinetics on immobilised C3b (method of Example 2)
Bridge positions count the residues as written; N and C are the ends. Square brackets hold non-standard residues; d marks the D form. Ends that are not written are not given here. Trp(1-Me) = Cn1cc(C[C@H](N)C(=O)O)c2ccccc21; NMeI = CC[C@H](C)[C@H](NC)C(=O)O; Orn = NCCC[C@H](N)C(=O)O; Sar = CNCC(=O)O
observation type: Kd (nM)

binder | unit of measurement | Kd
[dY]ICV[Trp(1-Me)]QNW[Sar]AHRC[NMeI]-NH2 (disulfide 3-13; N-terminus assumed; SMILES CC[C@H](C)[C@H](NC(=O)[C@H](N)Cc1ccc(O)cc1)C(=O)N[C@H]1CSSC[C@@H](C(=O)N(C)[C@H](C(N)=O)[C@@H](C)CC)NC(=O)[C@H](CCCNC(=N)N)NC(=O)[C@H](Cc2c[nH]cn2)NC(=O)[C@H](C)NC(=O)CN(C)C(=O)[C@H](Cc2c[nH]c3ccccc23)NC(=O)[C@H](CC(N)=O)NC(=O)[C@H](CCC(N)=O)NC(=O)[C@H](Cc2cn(C)c3ccccc23)NC(=O)[C@H](C(C)C)NC1=O) [Cp40 (6Asn)] | nM | 3

A. [dY]ICV[Trp(1-Me)]QNW[Sar]AH[Orn]C[NMeI]-NH2 (disulfide 3-13) [Cp40 (11Orn 6Asn)]
B. [dY]ICV[Trp(1-Me)]QDW[Sar]AH[Orn]C[NMeI]-NH2 (disulfide 3-13) [Cp40 (11Orn)]
QUERY: I need your help: which of the pair A , B has higher Kd? API: response body contains the label of the selected item.
RESULT: A
